Numbers sourced from the supplement of paper PMC3334620.

sequences and their reported PBM E-score
- target-system: Vhr1 (UniProt P40522)
- Sequence: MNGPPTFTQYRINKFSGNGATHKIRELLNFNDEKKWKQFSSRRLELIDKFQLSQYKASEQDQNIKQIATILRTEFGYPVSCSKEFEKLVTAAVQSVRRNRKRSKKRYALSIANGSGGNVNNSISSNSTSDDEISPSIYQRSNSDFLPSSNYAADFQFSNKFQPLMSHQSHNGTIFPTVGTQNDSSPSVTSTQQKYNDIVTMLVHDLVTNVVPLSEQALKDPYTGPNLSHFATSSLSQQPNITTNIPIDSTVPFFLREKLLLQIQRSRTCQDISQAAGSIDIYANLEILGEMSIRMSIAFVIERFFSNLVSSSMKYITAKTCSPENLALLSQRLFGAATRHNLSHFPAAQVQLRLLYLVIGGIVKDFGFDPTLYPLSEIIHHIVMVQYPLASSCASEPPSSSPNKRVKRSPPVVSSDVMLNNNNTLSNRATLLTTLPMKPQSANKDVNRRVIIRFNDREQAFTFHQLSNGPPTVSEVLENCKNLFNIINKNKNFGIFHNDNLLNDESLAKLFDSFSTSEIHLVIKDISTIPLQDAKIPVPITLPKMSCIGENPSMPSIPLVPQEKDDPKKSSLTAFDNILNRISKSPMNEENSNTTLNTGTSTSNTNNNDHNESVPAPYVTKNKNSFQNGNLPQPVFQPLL
- assay-name: PBM E-score (8-mer binding enrichment) (E-score (-0.5 to 0.5)); higher = stronger / more preferred TF binding
- conditions: protein concentration: 200 nM; construct: GST-full length
Over roughly 33,000 sequences, “E-score (-0.5 to 0.5)” has its median near -0.012; the highest 2% begin near 0.27. Shown is part of a subset that was picked to be rich in the highest values.
Please reply with the value in numeric form only.

Example sequences with recorded PBM E-score:
sequence-text	PBM E-score
GCAGATTA	0.0608
CGATAGGA	0.129
ACTATGAA	0.0955
CAGGGGCG	0.301
AGCTTCTA	-0.278

Let me check: `AGTCTTGC` , system Vhr1 (UniProt P40522), measured PBM E-score is 0.0289

Let me check: `CCCGATGC` , system Vhr1 (UniProt P40522), measured PBM E-score is -0.18

Let me check: `AAGGGGCG` , system Vhr1 (UniProt P40522), measured PBM E-score is -0.0512

Let me check: `ATCTCCAT` , system Vhr1 (UniProt P40522), measured PBM E-score is 0.0116

Let me check: `AACCTCAG` , system Vhr1 (UniProt P40522), measured PBM E-score is -0.103

Let me check: `GAAGAAAA` , system Vhr1 (UniProt P40522), measured PBM E-score is -0.221

Let me check: `CCCGATGA` , system Vhr1 (UniProt P40522), measured PBM E-score is 0.273

Let me check: `TCTACTCA` , system Vhr1 (UniProt P40522), measured PBM E-score is 0.112

====

- target-system: Vhr1 (UniProt P40522)
- Sequence: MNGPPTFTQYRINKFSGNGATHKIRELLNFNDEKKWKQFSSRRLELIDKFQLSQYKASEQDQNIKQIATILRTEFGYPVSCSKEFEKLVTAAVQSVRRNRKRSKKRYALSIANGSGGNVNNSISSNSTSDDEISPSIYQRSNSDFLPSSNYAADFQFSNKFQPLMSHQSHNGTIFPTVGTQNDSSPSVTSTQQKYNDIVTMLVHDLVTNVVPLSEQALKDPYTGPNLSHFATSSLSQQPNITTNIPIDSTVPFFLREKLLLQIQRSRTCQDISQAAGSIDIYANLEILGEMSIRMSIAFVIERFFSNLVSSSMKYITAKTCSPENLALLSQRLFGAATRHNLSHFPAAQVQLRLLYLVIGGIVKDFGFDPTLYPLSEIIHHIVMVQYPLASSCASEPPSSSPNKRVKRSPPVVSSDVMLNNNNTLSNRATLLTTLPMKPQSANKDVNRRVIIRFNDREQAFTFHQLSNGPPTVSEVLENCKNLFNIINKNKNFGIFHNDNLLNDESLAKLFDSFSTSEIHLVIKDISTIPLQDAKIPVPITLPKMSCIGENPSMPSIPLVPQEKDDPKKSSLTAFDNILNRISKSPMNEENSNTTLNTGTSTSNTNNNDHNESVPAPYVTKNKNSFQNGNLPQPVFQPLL
- assay-name: PBM E-score (8-mer binding enrichment) (E-score (-0.5 to 0.5)); higher = stronger / more preferred TF binding
- conditions: protein concentration: 200 nM; construct: GST-full length
The full ranking holds about 33,000 sequences; the median of “E-score (-0.5 to 0.5)” is about -0.012, and the highest 2% start at about 0.27. The sample holds the highest values, similar sequences and a random draw of the others, so the mix is not that of the screen.
property-label: PBM E-score
Please reply with the value in numeric form only.

Example sequences with recorded PBM E-score:
sequence-text	obs-value
ACACTCAC	0.281
CAAGGCAC	-0.0306
ACACTCAG	-0.0414
AATCACAC	0.316

The value of PBM E-score measured for the sequence `AATCACAT` turned out to be 0.17

The value of PBM E-score measured for the sequence `AAAATCAT` turned out to be 0.151

The value of PBM E-score measured for the sequence `CATGTAGA` turned out to be 0.00603

The value of PBM E-score measured for the sequence `ACCATGTC` turned out to be 0.144

The value of PBM E-score measured for the sequence `AATCACAG` turned out to be 0.27

The value of PBM E-score measured for the sequence `ACGCACAT` turned out to be 0.0403

The value of PBM E-score measured for the sequence `ACTCACAG` turned out to be 0.325
